- System: Fusarium oxysporum f. sp. vasinfectum
- test: Antifungal activity against Fusarium oxysporum vasinfectum at 100 ppm after 144 hrs at 24 hrs intervals
- Type: functional
In this section, each of the compounds is paired with its reported inhibition at 100 ppm.
Report the value in % with no unit label.

{"entry smiles": "S=c1c2ccccc2oc2ccccc12", "inhibition at 100 ppm, %": 4}
{"entry smiles": "COc1cc2oc3cc(OC)c(OC)c(CC=C(C)C)c3c(=O)c2c(O)c1CC=C(C)C", "inhibition at 100 ppm, %": 16}
{"entry smiles": "CC(C)=CCc1c(O)cc2oc3cc(O)c(O)c(CC=C(C)C)c3c(=O)c2c1O", "inhibition at 100 ppm, %": 50}
{"entry smiles": "CCOc1cc2oc3cc(OCC)c(OC)c(CC=C(C)C)c3c(=O)c2c(O)c1CC=C(C)C", "inhibition at 100 ppm, %": -3}
{"entry smiles": "CC1(C)CCc2c(cc3oc4cc(O)c5c(c4c(=O)c3c2O)CCC(C)(C)O5)O1", "inhibition at 100 ppm, %": 0}
{"entry smiles": "COc1c(O)cc2oc3cc4c(c(O)c3c(=O)c2c1CC=C(C)C)CCC(C)(C)O4", "inhibition at 100 ppm, %": 19}
{"entry smiles": "CCCCOc1cc2oc3cc(OCCCC)c(OC)c(CC=C(C)C)c3c(=O)c2c(O)c1CC=C(C)C", "inhibition at 100 ppm, %": -4}
{"entry smiles": "C=CCOc1cc2oc3cc(OCC=C)c(OC)c(CC=C(C)C)c3c(=O)c2c(O)c1CC=C(C)C", "inhibition at 100 ppm, %": 4}

Reported inhibition at 100 ppm of "CC(C)=CCc1c(O)c(CC=C(C)C)c2oc3c(O)ccc(O)c3c(=O)c2c1O" : 9

The compound listed as "C=C(C)COc1cc2oc3cc(OCC(=C)C)c(OC)c(CC=C(C)C)c3c(=O)c2c(O)c1CC=C(C)C" has a reported inhibition at 100 ppm of 3

// sample "COc1c(O)cc2oc3cc(O)c(CC=C(C)C)c(O)c3c(=O)c2c1CC=C(C)C" , its inhibition at 100 ppm was 29

---

Recorded inhibition at 10 ppm for the following compounds
- Test system: Fusarium oxysporum f. sp. vasinfectum
- test: Antifungal activity against Fusarium oxysporum vasinfectum at 10 ppm after 144 hrs at 24 hrs intervals
- Format: functional
Supply the numeric figure in %, leaving out any unit text.

The following compounds have reported results that may help.
{"entry smiles": "S=c1c2ccccc2oc2ccccc12", "inhibition at 10 ppm / %": 4}
{"entry smiles": "CCCCOc1cc2oc3cc(OCCCC)c(OC)c(CC=C(C)C)c3c(=O)c2c(O)c1CC=C(C)C", "inhibition at 10 ppm / %": -4}
{"entry smiles": "COc1c(O)cc2oc3cc(O)c(CC=C(C)C)c(O)c3c(=O)c2c1CC=C(C)C", "inhibition at 10 ppm / %": 22}
{"entry smiles": "O=c1c2ccccc2oc2ccccc12", "inhibition at 10 ppm / %": 8}
{"entry smiles": "CC(C)=CCc1c(O)cc2oc3cc(O)c(O)c(CC=C(C)C)c3c(=O)c2c1O", "inhibition at 10 ppm / %": 6}
{"entry smiles": "C=C(C)COc1cc2oc3cc(OCC(=C)C)c(OC)c(CC=C(C)C)c3c(=O)c2c(O)c1CC=C(C)C", "inhibition at 10 ppm / %": 2}

In plain terms, "C=CCOc1cc2oc3cc(OCC=C)c(OC)c(CC=C(C)C)c3c(=O)c2c(O)c1CC=C(C)C" has a documented inhibition at 10 ppm of 1

Note to self: inhibition at 10 ppm recorded for "COc1cc2oc3cc(OC)c(OC)c(CC=C(C)C)c3c(=O)c2c(O)c1CC=C(C)C" was 12

Notebook: "COc1c(O)cc2oc3cc(O)c(CC=C(C)C)c(O)c3c(=O)c2c1CCC(C)(C)O" , inhibition at 10 ppm read as 10

Measured values drawn from ChEMBL document CHEMBL1146447 for this set.
